Ref: PubChem BioAssay AID651664

assay_notes: inhibitors of lytic granule exocytosis, flow cytometry, TALL-104 cells, validation set (AID 651664)
condition_info: TALL-104 LAMP-1 externalization, at 15.2 µM, hits give high values, stimulated with thapsigargin and PMA
Out of some 1,800 compounds screened, fewer than 10 were called active. Only a sample is shown.
Catalogue of compounds with associated inhibition
value_kind: inhibition (%)

| compound | value_kind | units_symbol | obs_value |
| --- | --- | --- | --- |
| CC(=O)C(C)Oc1ncn(-c2ccccc2)n1 (stereo unspecified) | inhibition | % | -3 |
| COc1cc(CC(=O)OCC(=O)c2ccc3c(c2)OCCO3)cc(OC)c1OC | inhibition | % | 0.6 |
| Fc1ccc(C2=Nn3c(Cc4ccccc4F)nnc3SC2)cc1 | inhibition | % | 1.3 |
| CC(NC(=O)NCCCC(=O)O)(C(F)(F)F)C(F)(F)F | inhibition | % | 2 |
| Cc1nn2c(N)c(C#N)cnc2c1-c1ccc(Cl)cc1 | inhibition | % | 2.5 |
| COc1ccccc1NC(=O)CC1COc2ccccc2O1 (stereo unspecified) | inhibition | % | -0.3 |

###

assay_notes: inhibitors of lytic granule exocytosis, flow cytometry, TALL-104 cells, validation set (AID 651664)
condition_info: TALL-104 LAMP-1 externalization, at 15.2 µM, stimulated with thapsigargin and PMA
Hit rate of the full screen: of about 1,800 compounds, fewer than 10 were called active.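 The calls were made as follows: active = inhibition of granule release above a set limit; inactive = the rest.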 A selection follows.
Outcomes: T = active, F = inactive

| compound | group_label |
| --- | --- |
| Cc1ccc(NC(=O)/C(=C\C=C\c2ccccc2)NC(=O)c2ccccc2)cc1 | F |
| COC(=O)CSc1ncnc2c1cnn2Cc1ccccc1 | F |
| Cn1cnnc1Sc1cc(N2CCN(S(=O)(=O)c3ccc(Cl)c(Cl)c3)CC2)ccc1[N+](=O)[O-] | F |
| Cc1ccc(-c2nc(N)c3c(-c4ccc(C)cc4)nn(C(C)(C)C)c3n2)cc1 | F |
| Cc1ccc(C(=O)C2(C)C3c4cc(Br)ccc4OC(=O)C32C(=O)c2ccco2)cc1 (stereo not given) | T |
| CCCCN(CCCC)CP(=O)(c1ccccc1)c1ccccc1 | F |
| O=C(c1ccc(S(=O)(=O)N2CCCCCC2)cc1)N1CCC(CN2C(=O)c3cccc4cccc(c34)C2=O)CC1 | F |
| CCOC(=O)C(C)On1c(-c2ccccc2)nc2ccc([N+](=O)[O-])cc21 (stereo not given) | F |
| CCCCSC(=S)N(C)C1CCS(=O)(=O)C1 (stereo not given) | F |
| O=C(CN1CCN(c2cccc(C(F)(F)F)c2)CC1)Nc1cccc(C(F)(F)F)c1 | F |

###

Catalogue of molecules with associated inhibition
assay_notes: inhibitors of lytic granule exocytosis, flow cytometry, TALL-104 cells, validation set (AID 651664)
condition_info: TALL-104 LAMP-1 externalization, at 15.2 µM, hits give high values, stimulated with thapsigargin and PMA
The whole screen tested about 1,800 compounds, of which fewer than 10 were called active. Not all results are given here.
value_kind: inhibition (%)

| molecule | units_symbol | obs_value |
| --- | --- | --- |
| O=C(CSc1nnc(-c2cccs2)n1-c1ccccc1)Nc1ccccc1 | % | 22.8 |
| Oc1ccccc1N=Nc1nc(-c2ccccc2)c(-c2ccccc2)[nH]1 | % | -2.4 |
| Cc1cc2c(cc1C)NC(c1nc3ccccc3[nH]1)C1=C(CC(C)(C)CC1=O)N2 (centres undefined) | % | -3.1 |
| COC(=O)CN1C(=O)CSc2ncccc21 | % | 0.6 |
| CC(=O)COc1ncn(-c2ccccc2)n1 | % | 0.2 |
| CCOC(=O)c1c(NC(=O)Cc2cccs2)sc(C(=O)N2CCCCC2)c1C | % | -4.7 |
| Cc1occc1C(=O)Nc1ccc2ccccc2c1 | % | 0.2 |
| O=C1CCCCC1C(Nc1ccc(Cl)cc1)c1ccccc1 (centres undefined) | % | 1.3 |
| O=C(COc1ccc(F)cc1)c1ccc2c(c1)CCCC2 | % | -2.8 |
| CC(=O)c1ccc(N2CCN(CCC#N)CC2)c(F)c1 | % | 8.2 |
| O=C1C=C(N2CCN(C(=O)c3ccccc3)CC2)C2(CCCCC2)O1 | % | -4.4 |
| CN=C(NC)SC1CC(=O)N(c2ccccc2)C1=O (centres undefined) | % | 3.9 |
| CN1CCN(c2nc(-c3ccccc3)nc3c2oc2ccccc23)CC1 | % | 1.5 |
| CCC(C)(C)NC(=O)C(c1ccco1)N(C(=O)Cn1nnc2ccccc21)c1ccc2c(c1)OCO2 (centres undefined) | % | -0.1 |
| O=c1[nH]c2c(s1)C(c1ccccc1)C1C3CCC(C3)C1S2 (centres undefined) | % | 0.8 |
| Cc1cccc(/C(N)=N/OC(=O)CCCN2C(=O)c3ccccc3C2=O)c1 | % | 1.9 |
| COc1cccc2cc(C(=O)Nc3cccc(C)n3)c(=O)oc12 | % | 4.9 |
| O=S(=O)(CCc1nc2ccccc2o1)c1ccc(Cl)c(Cl)c1 | % | -2.2 |
| CCOC1(OCC)N=C(N)C2(C#N)C(c3cccc(C)c3)C12C#N (centres undefined) | % | -0.4 |
| Fc1ccccc1/C=N/Nc1nn[nH]n1 | % | -1.6 |
| OCCN=c1cc(-c2ccccc2)oc2ccc(Cl)cc12 | % | 3.5 |
| C=C(C)CN1C(=O)C(O)(CC(=O)c2ccc3c(c2)OCCO3)c2ccccc21 (centres undefined) | % | 1.5 |
| COC(=O)C1CCN(c2cc(=O)n(C3CCCCC3)c(=O)[nH]2)CC1 | % | 5.6 |
| COc1ccc(NC(=O)c2cccc(S(=O)(=O)N3CCOCC3)c2)cn1 | % | 1.5 |

###

assay_notes: inhibitors of lytic granule exocytosis, flow cytometry, TALL-104 cells, validation set (AID 651664)
condition_info: TALL-104 LAMP-1 externalization, at 15.2 µM, stimulated with thapsigargin and PMA
Hit rate of the full screen: of about 1,800 compounds, fewer than 10 were called active.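 Rule for the calls: active = inhibition of granule release above a set limit; inactive = the rest.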 Not all results are given here.
Outcomes: yes = active, no = inactive

| compound | group_label |
| --- | --- |
| Cc1ccccc1C1CC(c2ccccc2OC(F)F)Nc2ncnn21 (configuration not stated) | no |
| O=C(COC(=O)c1ccccc1)NCc1ccco1 | no |
| N/C(=N\OC(=O)c1cccc(Br)c1)c1ccc(Br)cc1 | yes |
| COC(=O)c1ccc(CSc2nc3ccccc3c(=O)n2-c2ccccc2)o1 | no |
| O=C(/C=N/O)Nc1ccc(F)cc1 | no |
| Cc1nc(NCc2ccco2)c2oc3ccccc3c2n1 | no |
| CCCS(=O)(=O)N1CCCC(C(=O)NCCN(Cc2ccccc2)C(C)C)C1 (configuration not stated) | no |
| O=C(O)CCCCCNC(=O)Nc1ccc2c(c1)OCCO2 | no |
| CCc1ccc2c(c1)c(N=NC1=NC(=O)CS1)c(O)n2CC | no |
| CCC(CC)NC(=O)c1cc2c(C)nn(Cc3ccccc3Cl)c2s1 | no |
| CCn1c(-c2ccccc2)c[nH]c1=S | no |
| N/C(=N\OC(=O)CCCN1C(=O)c2ccccc2C1=O)c1ccc(Br)cc1 | no |

###

assay_notes: inhibitors of lytic granule exocytosis, flow cytometry, TALL-104 cells, validation set (AID 651664)
condition_info: TALL-104 LAMP-1 externalization, at 15.2 µM, hits give high values, stimulated with thapsigargin and PMA
Hit rate of the full screen: of about 1,800 compounds, fewer than 10 were called active. These entries were drawn from the full list.

| compound | inhibition [%] |
| --- | --- |
| O=C(O)c1c[nH]c(=S)n1-c1ccc(F)cc1 | 1.2 |
| CC(=O)N1CCN(S(=O)(=O)c2cccc(C(=O)NC3CCCc4ccccc43)c2)CC1 (stereo unspecified) | 0 |
| CC(C)(C)NC(=O)Cc1ccc(S(=O)(=O)N2CCCC2)s1 | -1.8 |
| COC(=O)c1ccccc1NC(=O)c1ccc(COc2ccc(C)c(C)c2)o1 | -0.1 |
| CC1CCN(S(=O)(=O)c2ccc(F)c(C(=O)O)c2)CC1 | 3.9 |
| CCOC(=O)c1sc2nc(CC(=O)OC)nc(NCCN3CCOCC3)c2c1C | -2.4 |
| Cc1ccc(Cl)cc1NC(=O)CSC(N)=O | -3 |
| N#CC1=C(N)N(c2ccc(Oc3ccccc3)cc2)C(=O)C1 | 1.8 |
| Cn1c(CN2CCCC2)nc2cc(NS(=O)(=O)c3ccc(Cl)cc3)ccc21 | -3.8 |
| Clc1ccccc1C1SCC2Nc3ccccc3CN21 (stereo unspecified) | 0.1 |
| CC(C)(C)NC(=O)C1Cc2ccccc2CN1C(=O)Nc1cccc(Cl)c1 (stereo unspecified) | 3.6 |

###

assay_notes: inhibitors of lytic granule exocytosis, flow cytometry, TALL-104 cells, validation set (AID 651664)
condition_info: TALL-104 LAMP-1 externalization, at 15.2 µM, stimulated with thapsigargin and PMA
Hit rate of the full screen: of about 1,800 compounds, fewer than 10 were called active.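 The calls were made as follows: active = inhibition of granule release above a set limit; inactive = the rest.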 Only a sample is shown.
Outcomes: active, inactive

| molecule | group_label |
| --- | --- |
| CN1CC(=O)NC1=NC(=O)c1ccc(Cl)c(S(=O)(=O)N2CCCCCC2)c1 | inactive |
| Cc1cccc(CC(Cc2nc3ccccc3[nH]2)c2nc3ccccc3[nH]2)c1 (stereo not drawn) | active |
| COP(C)(=O)c1c(C)nn(-c2ccccc2)c1C (stereo not drawn) | inactive |
| CSc1nc(-c2ccc(Cl)cc2)nn1C(=O)c1ccco1 | inactive |
| O=C(Cn1cnc2ccccc2c1=O)c1ccc2ccccc2c1 | inactive |
| Cc1ccc(C(=O)NC(=S)Nc2ccc(-c3cc4ccccc4oc3=O)cc2)c(C)c1 | inactive |
| c1ccc2nc(-c3nc4ccccc4[nH]3)ccc2c1 | inactive |
| COC(=O)c1ccc(N2C(=O)CC(N(C)CCc3ccc(OC)c(OC)c3)C2=O)cc1 (stereo not drawn) | active |
| FC(F)(F)c1cccc(NC(=S)N2CCN(c3cccc(C(F)(F)F)c3)CC2)c1 | inactive |
| COc1ccc(-c2sc(NC(=O)c3ccc(C)cc3)nc2-c2ccc([N+](=O)[O-])cc2)cc1 | inactive |
| N/C(=N\OC(=O)c1ccc(Cl)cc1Cl)c1ccc(Cl)cc1 | inactive |
| Cc1nc2c(=O)oc3ccccc3c2n1-c1ccccc1 | inactive |
| O=c1cc(N2CCc3ccccc3C2)[nH]c(=O)n1C1CCCCC1 | inactive |
| C=CCn1c(-c2cccs2)nc2nc3ccccc3nc21 | inactive |
| O=C(NCc1nc2ccccc2[nH]1)c1cc2ccccc2oc1=O | inactive |
| Cc1ccc(S(=O)(=O)N2CCOCC2)cc1C(=O)OCC(=O)N1CCc2ccccc2C1 | inactive |
| O=C1c2ccccc2C(=O)N1SC1CCCCC1 | inactive |
| Cc1snc(S(=O)(=O)/C(C#N)=N/Nc2cccc(C(F)(F)F)c2)c1C#N | inactive |
| CC(C(=O)O)N1C(=O)CSc2ncccc21 (stereo not drawn) | inactive |
| CCOC(=O)c1ccc(N2C(=O)CC(C3CCCO3)C2=O)cc1 (stereo not drawn) | inactive |
| COC(=O)c1cc(NC(=O)CN(c2ccc3c(c2)OCO3)S(C)(=O)=O)ccc1Cl | inactive |
| CC1CCCN(C(=O)C2CCN(CC3CC=CCC3)CC2)C1 (stereo not drawn) | inactive |
| COc1cccc(OC)c1C(=O)Nc1cc(C)on1 | inactive |
